Listed here: items and their measured PBMCs CD4+ gate RL1 binding, anti-mFc 647.
target: T1, human CD4 on cells (SKW3 cells; human PBMCs) (human, UniProt P01730 26-458); test: FACS confirmation, supernatant on human PBMCs;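 further: flow cytometry with hybridoma supernatants incubated on human PBMCs for 30 min at 4 °C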
T1 construct: whole, on cells; SKW3 CD4 knockout cells served as the negative cell line in the primary screen; also called hCD4; huCD4
In your answer, state the number alone without any accompanying words.

Recorded PBMCs CD4+ gate RL1 binding, anti-mFc 647, per entry:
INSERT INTO measurements (binder, endpoint_result) VALUES
  ('75110_14P08A (antibody, V domains shown, Tested as non-clonal AlivaMab Mouse Kappa hybridoma supernatant (detected with anti-mouse Fc gamma and anti-human kappa)) VH: QVQLQESGPGLVKSSETLSLTCTDSGDSIRSYYWNWIRQPAGKGLEWIGRIYASGSTNYNPSLKSRVIMSADTSKNRFSLKLSSVTAADTAVYYCARDGGVGDSLDYWGQGTLVTVSS VL: DIVMTQTPLSLPVTPGEPASISCRSSQSLLDSDDGNTYLDWYLQKPGQSPQLLIYTLSYRASGVPDRFSGSGSGTDFTLKISRVEAEDVGVYYCMQRIEFPFTFGPGTKVDIK', 292000),
  ('75110_08K12A (antibody, V domains shown, Tested as non-clonal AlivaMab Mouse Kappa hybridoma supernatant (detected with anti-mouse Fc gamma and anti-human kappa)) VH: EVQLVESGGGLVQPGGSLRLSCAASGFTFSSYDMHWVRQATGKGLEWVSTIGTAGDTYYPGSVKGRFTISRENAENSLYLQMNSLRAGDTALYYCARGDYYYYGMDVWGQGTTVTVSS VL: EIVLTQSPGTLSLSPGERATLSCRASQSVSSTYLAWYQQKPGQAPRLLIYGASNRATGIPDRFSGSGSGTDFTLTISRLEPEDFAVYYCQQFGTSPFTFGPGTKVDIK', 276000),
  ('75110_06K03A (antibody, V domains shown, Tested as non-clonal AlivaMab Mouse Kappa hybridoma supernatant (detected with anti-mouse Fc gamma and anti-human kappa)) VH: QVQLQESGPGLVKPSETLSLTCTVSGGSISTYYWSWIRQPAGKGLEWIGRINTSGSTTYNPSLKSRVTMSVDTSKNQFSLKLSSVTAADTAVYYCARELERYYYYGMDVWGQGTTVTVSS VL: DIQMTQSPSSLSASVGDRVTITCQASQDISNYLNWYQQKPGKAPKLLIYYASILETGVPSRFSGSGSGTDFTFTISSLQPEDIATYYCQQYDSLPLTFGGGTKVEIK', 296000),
  ('75110_14I16A (antibody, V domains shown, Tested as non-clonal AlivaMab Mouse Kappa hybridoma supernatant (detected with anti-mouse Fc gamma and anti-human kappa); also called 75110_14116A) VH: QVQLQESGPGLVKPSETLSLTCTVSNGSISSYYWSWIRQSAGKGLEWIGRIYTSGSTNYNPSLKSRVTMLVDTSKNQFSLKLSSVTAADTAVYYCARDREDYYYYGMDVWGQGTTVTVSS VL: DIQMTQSPSSLSASVGDRVTITCQASHDISNYLNWYQQKPGKAPKLLLYYASNLETGVPSRFSGSGSGTDFTFTITSLQPEDIGTYSCQQYDNLPLTFGGGTKVEIK', 196000);

Query: Please report the recorded PBMCs CD4+ gate RL1 binding, anti-mFc 647 for 75110_08M20A (antibody, V domains shown, Tested as non-clonal AlivaMab Mouse Kappa hybridoma supernatant (detected with anti-mouse Fc gamma and anti-human kappa)) VH: QVQLQESDPGLVKPSETLSLTCTVSGGSISSYYWSWIRQPAGKGLEWIGRIYASGSTNYNPSLKSRVTMSVDTSKNQFSLKLSSVTAADTAVYYCARDREGYYYYGMDVWGQGTTVTVSS VL: DIQMTQSPSSLSASVGDRVTITCQASQDISKYLNWYQQKPGKAPNLLIYAASNLETGVPSRFSGSGSGTDFTFTISSLQPEDIAAYYCQQYDSLPITFGQGTRLEIK .
Result: 319000
